The reported measurements were obtained from ChEMBL document CHEMBL3286235.

- tested_system: cAMP and cAMP-inhibited cGMP 3',5'-cyclic phosphodiesterase 10A (Homo sapiens, UniProt Q9Y233)
- Sequence (Q9Y233 whole entry): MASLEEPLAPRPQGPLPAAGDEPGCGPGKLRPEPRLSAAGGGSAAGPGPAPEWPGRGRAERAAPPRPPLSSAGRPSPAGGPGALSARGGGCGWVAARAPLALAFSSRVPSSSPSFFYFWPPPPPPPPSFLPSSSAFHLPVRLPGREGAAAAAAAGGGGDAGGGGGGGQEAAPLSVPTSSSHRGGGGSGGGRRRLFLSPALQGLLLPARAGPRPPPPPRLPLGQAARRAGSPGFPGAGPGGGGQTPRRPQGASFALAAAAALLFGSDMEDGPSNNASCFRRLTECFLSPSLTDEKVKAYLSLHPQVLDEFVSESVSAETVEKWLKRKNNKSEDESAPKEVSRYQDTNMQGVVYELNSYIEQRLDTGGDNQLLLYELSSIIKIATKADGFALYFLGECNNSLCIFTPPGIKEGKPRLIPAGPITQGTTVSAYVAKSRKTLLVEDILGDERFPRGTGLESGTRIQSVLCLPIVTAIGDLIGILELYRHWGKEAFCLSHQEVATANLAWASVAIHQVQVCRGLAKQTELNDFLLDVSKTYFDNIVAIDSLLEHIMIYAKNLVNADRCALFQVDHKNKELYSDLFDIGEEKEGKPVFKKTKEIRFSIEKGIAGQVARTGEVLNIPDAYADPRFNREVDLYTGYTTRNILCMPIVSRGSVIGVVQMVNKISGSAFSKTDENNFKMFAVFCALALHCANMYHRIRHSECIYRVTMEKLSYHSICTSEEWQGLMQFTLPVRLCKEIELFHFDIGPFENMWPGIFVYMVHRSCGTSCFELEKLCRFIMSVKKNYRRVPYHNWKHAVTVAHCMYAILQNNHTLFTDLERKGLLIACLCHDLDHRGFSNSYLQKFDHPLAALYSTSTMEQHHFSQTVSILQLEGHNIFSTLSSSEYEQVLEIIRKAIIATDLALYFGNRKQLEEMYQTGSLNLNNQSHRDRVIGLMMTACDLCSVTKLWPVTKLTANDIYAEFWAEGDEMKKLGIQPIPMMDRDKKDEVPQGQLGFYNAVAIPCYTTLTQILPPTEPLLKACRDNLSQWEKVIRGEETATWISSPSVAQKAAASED
- assay_procedure: Inhibition of human recombinant PDE10A expressed in Sf9 insect cell system assessed as inhibition of cAMP hydrolysis preincubated for 30 mins before substrate addition measured after 60 mins by HTRF assay
Provide the reported pIC50 of each item.
# log scale: pIC50 equals minus log10 of the concentration in mol/L

Exercise: I'd like to know its pIC50. The compound in question is "COc1ccnc2c1nc(CCn1c(=O)n(C)c3cccnc31)n2-c1ccccc1"
Solution: 7.55

Exercise: I'd like to know its pIC50. The compound in question is "Cc1ccc2c(c1)nc(CCc1ncc3ccccn13)n2-c1ccccc1"
Solution: 5.17

Exercise: I'd like to know its pIC50. The compound in question is "Cc1ccc2c(c1)nc(CCn1c(=O)c(C)nc3cccnc31)n2-c1ccccc1"
Solution: 7.55

Exercise: I'd like to know its pIC50. The compound in question is "COc1ccc2c(c1)nc(CCn1c(=O)n(C)c3cccnc31)n2-c1ccccn1"
Solution: 6.66

Exercise: I'd like to know its pIC50. The compound in question is "Cc1cnc2c(c1)nc(CCn1c(=O)n(C)c3cccnc31)n2-c1ccccc1"
Solution: 6.70
